From: ChEMBL document CHEMBL1144220

system: RNA A (synthetic); experiment: Binding affinity to RNA A by quantitative ribonuclease V1 footprinting assay
Square brackets hold non-standard residues; d marks the D form. Peptide text beside a SMILES is read from it. * marks the point of attachment. X1 = C=CCc1ccc(-c2cc(Nc3ccc(CN)cc3)c3cccc(C(=O)*)c3n2)cc1; AllylGly = C=CC[C@H](N)C(=O)O; Dap = NC[C@H](N)C(=O)O
log10 Binding affinity reference
Metric name: log10 Binding affinity (log10 of the value in µM)

>>> numeric_result("C=CCc1ccc(-c2cc(Nc3ccc(CN)cc3)c3cccc(C(=O)N[C@@H](CN)C(=O)N[C@@H](CCCCN)C(=O)NCC(=O)N[C@@H](CC=C)C(N)=O)c3n2)cc1 (X1-[Dap]KG[AllylGly]-NH2)")
-0.48
>>> numeric_result("NCCCC[C@H]1NC(=O)[C@H](Cc2ccccc2)NC(=O)[C@H](CN)NC(=O)c2cccc3c(Nc4ccc(CN)cc4)cc(nc23)-c2ccc(cc2)C/C=C/C[C@@H](C(N)=O)NC1=O")
0.36
>>> numeric_result("NCCCC[C@H]1NC(=O)CNC(=O)[C@H](CN)NC(=O)c2cccc3c(Nc4ccc(CN)cc4)cc(nc23)-c2ccc(cc2)C/C=C/C[C@@H](C(N)=O)NC1=O")
-0.57
>>> numeric_result("CC(C)[C@H](NC(=O)[C@H](CO)NC(=O)CCCN)C(=O)NCc1ccc(Nc2ccnc3c(C(=O)N[C@@H](CCCNC(=N)N)C(N)=O)cccc23)cc1")
0.52
>>> numeric_result("NCCCC[C@@H]1NC(=O)[C@H](CN)NC(=O)c2cccc3c(Nc4ccc(CN)cc4)cc(nc23)-c2ccc(cc2)C/C=C/C[C@@H](C(N)=O)NC(=O)CNC1=O")
-1.30
>>> numeric_result("NCCCC[C@H]1NC(=O)[C@@H](Cc2ccccc2)NC(=O)[C@H](CN)NC(=O)c2cccc3c(Nc4ccc(CN)cc4)cc(nc23)-c2ccc(cc2)C/C=C/C[C@@H](C(N)=O)NC1=O")
0.93
